- assay_name: RPL19A-GFP modulators, yeast TOR pathway, confirmation, cell-based, S. cerevisiae, flow cytometry, cherry picks, mother/daughter gates (AID 2270)
- condition_context: S. cerevisiae RPL19A-GFP strain, 3 h, measured here: daughter cell gate, at 10 µM, stronger effect = lower value, 100 = same GFP as DMSO wells
GFP response vs DMSO for assorted compounds
Give the value in % but do not write % after it.

compound: CC(C(=O)NCCc1ccc(F)cc1)N1CCN(Cc2ccccc2)CC1 (centres undefined)
parameter_measured: GFP response vs DMSO
observed: 97

compound: CCC(=O)Nc1cccc(C(=O)/C=C/c2ccccc2)c1
parameter_measured: GFP response vs DMSO
observed: 102

compound: COc1ccc(-c2[nH]ncc2-c2ccc(Cl)cc2)c(O)c1
parameter_measured: GFP response vs DMSO
observed: 97.8

compound: COc1ccc(S(=O)(=O)N2Cc3ccccc3CC2C(=O)O)cc1OC (centres undefined)
parameter_measured: GFP response vs DMSO
observed: 97

compound: CN1CCN(CCCCOc2ccccc2C=O)CC1
parameter_measured: GFP response vs DMSO
observed: 97.8

compound: Cc1cc(N=Nc2ccccc2C(=O)O)c(C)c(C)c1O
parameter_measured: GFP response vs DMSO
observed: 99.4

q: Which value of GFP response vs DMSO has been reported for Cc1ccc(S(=O)(=O)c2ncccc2N)cc1 in the records?
a: 99.4

q: Which value of GFP response vs DMSO has been reported for Cc1ccccc1C(=O)Nc1ccccc1 in the records?
a: 94.9

q: Which value of GFP response vs DMSO has been reported for COC(=O)c1sc(-c2ccc(C(C)(C)C)cc2)cc1NC(=O)CCC(=O)O in the records?
a: 97.3

---

inhibition for assorted compounds
- study_system: Integrin beta-1 (Homo sapiens) + Integrin alpha-4 (Homo sapiens) (UniProt P13612+P05556)
- Sequence (P05556 whole entry, looked up): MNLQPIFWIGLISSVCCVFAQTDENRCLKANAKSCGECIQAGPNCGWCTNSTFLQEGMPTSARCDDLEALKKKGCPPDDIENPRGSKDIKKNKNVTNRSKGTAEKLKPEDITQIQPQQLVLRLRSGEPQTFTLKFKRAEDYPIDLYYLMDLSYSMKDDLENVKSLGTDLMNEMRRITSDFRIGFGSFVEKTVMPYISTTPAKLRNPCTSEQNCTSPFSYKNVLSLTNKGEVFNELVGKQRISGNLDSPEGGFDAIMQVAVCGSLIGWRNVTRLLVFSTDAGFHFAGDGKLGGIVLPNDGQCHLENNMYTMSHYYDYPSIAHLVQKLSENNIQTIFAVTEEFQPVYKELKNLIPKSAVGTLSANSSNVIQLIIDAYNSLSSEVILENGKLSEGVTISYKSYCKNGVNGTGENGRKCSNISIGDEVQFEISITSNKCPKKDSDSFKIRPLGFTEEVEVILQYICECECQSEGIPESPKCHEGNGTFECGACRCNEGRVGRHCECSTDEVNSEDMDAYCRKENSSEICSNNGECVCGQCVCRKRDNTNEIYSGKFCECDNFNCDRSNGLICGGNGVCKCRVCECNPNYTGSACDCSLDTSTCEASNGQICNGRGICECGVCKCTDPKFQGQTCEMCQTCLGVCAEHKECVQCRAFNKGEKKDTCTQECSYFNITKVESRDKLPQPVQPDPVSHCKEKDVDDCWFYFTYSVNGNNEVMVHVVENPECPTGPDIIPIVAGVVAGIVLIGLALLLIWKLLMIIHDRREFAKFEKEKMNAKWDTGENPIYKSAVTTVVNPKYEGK
- Sequence (P13612 whole entry, looked up): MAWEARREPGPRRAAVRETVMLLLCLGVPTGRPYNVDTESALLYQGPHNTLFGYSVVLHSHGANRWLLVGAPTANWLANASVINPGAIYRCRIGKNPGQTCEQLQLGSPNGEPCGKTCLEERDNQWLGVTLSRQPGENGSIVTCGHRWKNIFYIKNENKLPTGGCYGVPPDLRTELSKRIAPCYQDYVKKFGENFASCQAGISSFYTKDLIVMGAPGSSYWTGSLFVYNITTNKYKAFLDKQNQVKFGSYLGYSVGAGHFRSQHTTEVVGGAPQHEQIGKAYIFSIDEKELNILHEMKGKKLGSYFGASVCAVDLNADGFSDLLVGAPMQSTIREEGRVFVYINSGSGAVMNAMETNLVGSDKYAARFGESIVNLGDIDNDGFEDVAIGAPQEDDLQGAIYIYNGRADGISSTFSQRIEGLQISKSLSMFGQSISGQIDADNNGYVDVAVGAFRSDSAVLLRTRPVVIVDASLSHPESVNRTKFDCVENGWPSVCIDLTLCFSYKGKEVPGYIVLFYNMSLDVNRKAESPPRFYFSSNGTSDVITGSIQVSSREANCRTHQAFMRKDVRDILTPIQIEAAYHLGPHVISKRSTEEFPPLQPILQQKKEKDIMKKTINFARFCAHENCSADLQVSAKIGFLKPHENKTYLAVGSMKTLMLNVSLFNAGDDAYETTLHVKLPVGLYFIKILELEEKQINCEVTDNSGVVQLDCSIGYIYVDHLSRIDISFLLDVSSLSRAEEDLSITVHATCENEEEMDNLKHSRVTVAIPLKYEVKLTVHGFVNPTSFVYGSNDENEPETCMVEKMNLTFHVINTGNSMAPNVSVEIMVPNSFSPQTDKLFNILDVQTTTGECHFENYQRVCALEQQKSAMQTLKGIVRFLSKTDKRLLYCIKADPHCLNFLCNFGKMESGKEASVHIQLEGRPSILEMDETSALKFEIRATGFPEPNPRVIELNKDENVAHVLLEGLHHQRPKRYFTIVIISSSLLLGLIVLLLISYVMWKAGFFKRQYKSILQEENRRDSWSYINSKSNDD
- assay_name: inhibition of HUTS-21 binding to VLA-4, pilot screen, VLA-4 allosteric modulator project, U937 cells, HUTS-21 mAb, flow cytometry, validation set (AID 2674);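 further: antibody binding induced by the VLA-4 ligand LDV present at three times its Kd; 0% = LDV ligand with antibody and no compound and 100% = antibody without LDV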
- condition_context: HUTS-21 LIBS mAb binding, at 6.7 µM, stronger effect = higher value, binding induced by LDV ligand
Give the value in % but do not write % after it.

In the examples that follow, each entry is paired with its recorded inhibition.
compound: COc1ccc(C(=O)Nc2nc3ccccc3c(=O)[nH]2)cc1
parameter_measured: inhibition
measurement_unit: %
observed: 3.67
--
compound: CNCCc1ccccn1
parameter_measured: inhibition
measurement_unit: %
observed: 15.1
--
compound: COc1ccc2[nH]cc(CCNC(=O)C3CCCNC3=O)c2c1 (configuration not stated)
parameter_measured: inhibition
measurement_unit: %
observed: -2.11

q: Which value of inhibition has been reported for COc1ccc(C2CNC(=O)C2)cc1OC1CCCC1 (configuration not stated) in the records?
a: -8.64

q: Which value of inhibition has been reported for Cc1cccc(C)c1NS(=O)(=O)c1ccc(NC(=O)c2ccc(Cl)c([N+](=O)[O-])c2)cc1 in the records?
a: 9.37

q: Which value of inhibition has been reported for CCOC(=O)C1=C(N)Oc2c(oc(CO)cc2=O)C1c1ccc(F)c(F)c1 (configuration not stated) in the records?
a: 9.09

q: Which value of inhibition has been reported for CCc1cc2c(=O)c(-c3nc4ccccc4n3C)coc2c(CN2CCN(C)CC2)c1O in the records?
a: 17.5

---

GFP response vs DMSO for assorted compounds
- assay_name: RPL19A-GFP modulators, yeast TOR pathway, confirmation, cell-based, S. cerevisiae, flow cytometry, cherry picks, mother/daughter gates (AID 2270)
- condition_context: S. cerevisiae RPL19A-GFP strain, 3 h, measured here: mother cell gate, at 10 µM, stronger effect = lower value, 100 = same GFP as DMSO wells
The reply should consist of the numeric value with the unit placed after it.

In the examples that follow, each entry is paired with its recorded GFP response vs DMSO.
compound: CN1CC(=O)NC1=NC(=O)C12CC3CC(CC(C3)C1)C2
GFP response vs DMSO: 96%

compound: COc1cc(NC(=O)C(C)C)ccc1NC(=O)c1cc2ccccc2o1
GFP response vs DMSO: 103%

Here is the next item to consider.
q: Which value of GFP response vs DMSO has been reported for Cc1ccc(S(=O)(=O)N(Cc2ccccc2)Cc2ccco2)cc1 in the records?
a: 104%

---

GFP response vs DMSO for assorted compounds
- assay_name: RPL19A-GFP modulators, yeast TOR pathway, confirmation, cell-based, S. cerevisiae, flow cytometry, cherry picks, mother/daughter gates (AID 2270)
- condition_context: S. cerevisiae RPL19A-GFP strain, 3 h, measured here: daughter cell gate, at 10 µM, stronger effect = lower value, 100 = same GFP as DMSO wells
Give the value in % but do not write % after it.

compound: Cc1cccn2c(N)c(-c3ccccc3)nc12
GFP response vs DMSO [%]: 97.3

q: Which value of GFP response vs DMSO has been reported for COc1ccccc1-c1nnc(NC(=O)c2ccc3c(c2)OCO3)s1 in the records?
a: 104

q: Which value of GFP response vs DMSO has been reported for O=C1c2ccsc2SCCN1Cc1ccccc1Cl in the records?
a: 92

q: Which value of GFP response vs DMSO has been reported for CCc1ccc2c(c1)C1(NN=C(c3ccccc3)S1)C(=O)N2 (centres undefined) in the records?
a: 99.1

---

- assay_name: modulators of MEP2-GFP levels in yeast, confirmation, S. cerevisiae, flow cytometry GFP, cherry picks (AID 2272);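 further: ratio of well signal to plate DMSO mean so 100% equals DMSO level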
- condition_context: S. cerevisiae MEP2-GFP strain, 3 h, at 10 µM, stronger effect = higher value
parameter_measured: GFP response vs DMSO (%)
Give the value in % but do not write % after it.

In the examples that follow, each entry is paired with its recorded GFP response vs DMSO.
input_smiles: COC(=O)c1sc(-c2ccc(C(C)(C)C)cc2)cc1NC(=O)CCC(=O)O
GFP response vs DMSO / %: 100

input_smiles: Cc1ccn2c(NC3CCCCC3)c(C)nc2c1
GFP response vs DMSO / %: 99

input_smiles: O=C1ON=C(c2ccccc2)/C1=C/c1ccco1
GFP response vs DMSO / %: 141

input_smiles: COc1ccc(-c2noc(CCC(=O)Nc3cccc(C)c3)n2)cc1
GFP response vs DMSO / %: 102

input_smiles: Cc1ccc(C(=O)NNC(=S)NC(=O)c2ccco2)cc1
GFP response vs DMSO / %: 115

input_smiles: O=C(c1ccccc1Br)N1CCN(c2ccccc2)CC1
GFP response vs DMSO / %: 109

Here is the next item to consider.
q: Which value of GFP response vs DMSO has been reported for O=C(Nc1nc(-c2ccc(Cl)cc2)cs1)c1cccnc1 in the records?
a: 99

---

GFP response vs DMSO for assorted molecules
- assay_name: modulators of MEP2-GFP levels in yeast, confirmation, S. cerevisiae, flow cytometry GFP, cherry picks (AID 2272);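 further: ratio of well signal to plate DMSO mean so 100% equals DMSO level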
- condition_context: S. cerevisiae MEP2-GFP strain, 3 h, at 10 µM, stronger effect = higher value
Active and inactive are the calls of the source.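 How the source made its calls: active means GFP response above 150% of the DMSO control; inconclusive means Fewer than 70 cells counted for a yeast strain; inactive means the rest.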

q: Which value of GFP response vs DMSO has been reported for CS(=O)(=O)Nc1ccc(C2=NN(S(C)(=O)=O)C(c3ccccc3)C2)cc1 (configuration not stated) in the records?
a: 157% (inactive)

q: Which value of GFP response vs DMSO has been reported for COc1ccc(N2CCN(C(=O)c3ccc(Br)cc3)CC2)c([N+](=O)[O-])c1 in the records?
a: 132% (inactive)

q: Which value of GFP response vs DMSO has been reported for Cc1ccccc1CN1CCSc2sccc2C1=O in the records?
a: 95.7% (inactive)

q: Which value of GFP response vs DMSO has been reported for O=C(Nc1ccccc1N1CCOCC1)c1ccc([N+](=O)[O-])o1 in the records?
a: 90.5% (inactive)

---

- assay_name: AGP1-GFP expression modulators, hit retest, confirmation, cell-based, flow cytometry, S. cerevisiae, cherry picks (AID 2273);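 further: median GFP channel fluorescence over the whole cell population gate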
- condition_context: S. cerevisiae AGP1-GFP strain, 3 h, at 10 µM
parameter_measured: GFP response, % of DMSO (%)
Give the value in % but do not write % after it.

In the examples that follow, each entry is paired with its recorded GFP response, % of DMSO.
input_smiles: COc1cccc2cc(C(=O)N3CCN(C/C=C/c4ccccc4)CC3)c(=O)oc12
GFP response, % of DMSO [%]: 96.7
--
input_smiles: Cc1cccc(NC(=O)c2ccc([N+](=O)[O-])o2)c1
GFP response, % of DMSO [%]: 96.2

Here is the next item to consider.
q: Which value of GFP response, % of DMSO has been reported for CCOc1ccc(/C=C2\N=C(c3cccs3)OC2=O)cc1OC in the records?
a: 94.5

---

- study_system: ATP-binding cassette sub-family B member 6 (Homo sapiens)
- assay_name: ABCB6 transporter inhibitors, pilot screen, K562-ABCB6 cells, flow cytometry, validation set (AID 588550);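 further: 0% = DMSO wells and 100% = benzethonium chloride 70 µM positive control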
- condition_context: K562-ABCB6 porphyrin accumulation, 1 h, at 10 µM, stronger effect = higher value
parameter_measured: inhibition (%)
Give the value in % but do not write % after it.

compound: C[N+](C)(C)CCOP(=O)(O)OP(=O)([O-])OC[C@H]1O[C@@H](n2ccc(N)nc2=O)[C@H](O)[C@@H]1O
inhibition / %: 10

q: Which value of inhibition has been reported for Cc1nc2ccccc2c(=O)n1N in the records?
a: 6

q: Which value of inhibition has been reported for CCc1cccc(OC2OC(CO)C(O)C(O)C2NC(C)=O)c1 (configuration not stated) in the records?
a: 7

q: Which value of inhibition has been reported for CO/N=C(\C(=O)N[C@@H]1C(=O)N2C(C(=O)O)=C(COC(C)=O)CS[C@H]12)c1csc(N)n1 (stereo in doubt) in the records?
a: 11

q: Which value of inhibition has been reported for O=C(NCCN1CCCCC1)c1c(O)c2ccccc2[nH]c1=O in the records?
a: -4

q: Which value of inhibition has been reported for O=C(c1ccc(-c2ccccc2)c(F)c1)C1CCCN(C(=O)c2cncs2)C1 (configuration not stated) in the records?
a: 9

q: Which value of inhibition has been reported for N=C(N)c1ccc(OCCCCCOc2ccc(C(=N)N)cc2)cc1 in the records?
a: 9
